Entry source: paper PMC7006637

Target: α-glucosidase
Experiment: Enzyme kinetic study, Lineweaver–Burk double-reciprocal plots
Settings: from plot of slope (Km/Vm) versus inhibitor concentration; PNPG substrate; read-out: Ki value (inhibitor binding with free enzyme)
pKi reference
When answering, recall that pKi equals minus log10 of the concentration in mol/L, and write that number alone.

# input Give pKi for this entry on α-glucosidase: CCCCCCCCCCCC1=C(O)C(=O)C=C(O)C1=O [Embelin, 2,5-dihydroxy-3-undecyl-1,4-benzoquinone]
# output 5.43

----------
Test system: α-glucosidase
Experiment: α-glucosidase inhibition assay (PNPG substrate, OD 405 nm)
Assay type: biochemical, Saccharomyces cerevisiae
Conditions: compound at 250 μM; 0.07 U/ml enzyme, 0.5 mM PNPG, pH 6.8, 37 °C
Inhibition rate reference
Numbers only; they are read as %.

>>> observedvalue("COC1=CC(=O)C(OC)=C(CCC2CCCCC2)C1=O [Compound 14a]")
70.1

# input State, in one line, measured Inhibition rate of `CCCC1=C(O)C(=O)C=C(OC)C1=O`
# output 10.4

# input State, in one line, measured Inhibition rate of `CCCCCCCCCCCC1=C(OC)C(OC)=CC(=O)C1=O`
# output 0.6

----------
Inhibition rate reference
Tested on: α-glucosidase
Experiment: α-glucosidase inhibition assay (PNPG substrate, OD 405 nm)
Assay type: biochemical, Saccharomyces cerevisiae
Conditions: compound at 250 μM; 0.07 U/ml enzyme, 0.5 mM PNPG, pH 6.8, 37 °C
Numbers only; they are read as %.

Some solved entries appear below for comparison.
>>> observedvalue("COC1=CC(=O)C(=O)C(CCC2CCCCC2)=C1OC [Compound 14c]")
74.7
>>> observedvalue("CCCCCCCCCCCC1=C(O)C(=O)C=C(O)C1=O [Embelin, 2,5-dihydroxy-3-undecyl-1,4-benzoquinone]")
100
>>> observedvalue("CCCCCCCC1=C(O)C(=O)C=C(OC)C1=O [Compound 6b]")
5.4
>>> observedvalue("COC1=CC(=O)C(=O)C(CCC(C)C)=C1OC [Compound 11c]")
3.3
>>> observedvalue("CCCCCCCC1=C(OC)C(=O)C=C(OC)C1=O [Compound 6a]")
1.5

# input State, in one line, measured Inhibition rate of CCCCCCCC1=C(OC)C(OC)=CC(=O)C1=O [Compound 6c]
# output 16.1

# input State, in one line, measured Inhibition rate of CCCCCCCCCC1=C(OC)C(=O)C=C(OC)C1=O [Compound 7a]
# output 13.5

# input State, in one line, measured Inhibition rate of CC(C)CCCC(C)CCC1=C(O)C(=O)C=C(O)C1=O (centres unmarked) [Compound 12d]
# output 100

# input State, in one line, measured Inhibition rate of COCCCC1=C(O)C(=O)C=C(OC)C1=O [Compound 13b]
# output 0

# input State, in one line, measured Inhibition rate of CCCCCCCCCCCC1=C(OC)C(=O)C=C(OC)C1=O [Compound 8a]
# output 12.5

# input State, in one line, measured Inhibition rate of O=C1C=C(O)C(=O)C(CCCCCCCc2ccccc2)=C1O [Compound 15d]
# output 100

# input State, in one line, measured Inhibition rate of CCCCCCCCCCCC1=C(O)C(=O)C=C(OC)C1=O [Compound 8b]
# output 12.0

----------
Target: α-glucosidase
Experiment: α-glucosidase inhibition assay (PNPG substrate, OD 405 nm)
Format: biochemical, Saccharomyces cerevisiae
Settings: more than eight concentrations; GraphPad Prism 7.0
valueType: log10 of IC50 (log10 of the value in µM)
For clarity, the numbers are log10 values of IC50 expressed in µM.

Some solved entries appear below for comparison.
>>> observedvalue("O=C1C=C(O)C(=O)C(Cc2ccc3ccccc3c2)=C1O [Compound 16d]")
1.87
>>> observedvalue("CCCCCCCCCC1=C(O)C(=O)C=C(O)C1=O")
0.76
>>> observedvalue("CC(C)CCCC(C)CCC1=C(O)C(=O)C=C(O)C1=O (centres unmarked) [Compound 12d]")
0.52
>>> observedvalue("O=C1C=C(O)C(=O)C(CCCCCCCc2ccccc2)=C1O [Compound 15d]")
0.56

# input State, in one line, measured log10 of IC50 of CCCCCCCCCCCC1=C(O)C(=O)C=C(O)C1=O [Embelin, 2,5-dihydroxy-3-undecyl-1,4-benzoquinone]
# output 0.62
